Data origin: patent US12673954B2

Tested on: NF-κB pathway, THP1-Dual™ cells
Assay: STING reporter assay in THP1-Dual cells, NF-κB pathway (SEAP, QUANTI-Blue)
Type: cell-based, human
Settings: Homo sapiens, THP1-Dual, 20 h, THP1-Dual cells, 10% human plasma, 20 hours; SEAP; 100% activation = 100 μM cGAMP; read-out: NFkB (EC50 μM)
ASSAY ENDPOINT: EC50 (µM)
Give the value in µM but do not write µM after it.

## Input For the compound shown here, CSC(=O)c1cc(Cl)cc2cc([C@H](C)NC(=O)c3cnn4cccnc34)oc12 , give the reported EC50.
## Output 1.9

## Input Look up EC50 for this compound: COC(=O)c1cc(F)cc2cc(Cn3cnc4ccncc4c3=O)oc12
## Output 3.6

## Input Which EC50 reading was recorded for the compound COC(=O)c1ccc(C)c2cc(CNC(=O)c3cnn4cccnc34)oc12 ?
## Output 1.6

## Input Give its EC50 value. Item: CSC(=O)c1cc(F)cc2cc(CNC(=O)c3cnccn3)oc12
## Output 3

## Input What value of EC50 has been recorded for this entry: COC(OC(=O)c1cc(Br)cc2cc(CNC(=O)c3cnn4cccnc34)oc12)C(F)(F)F (single isomer, unassigned)
## Output 1.4

## Input # get_value(readout='EC50', item= COC(=O)c1cc(Cl)cc2c(Cl)c(CNC(=O)c3cncc4cccnc34)oc12 )
## Output 0.51

## Input Please report the recorded EC50 for COC(=O)c1cc(F)cc2cc(CNC(=O)c3cnn4cccnc34)oc12 .
## Output 0.77

## Input I would be grateful if you could share the reported EC50 for COC(=O)c1cc(C)cc2c(Br)c(CNC(=O)c3cnn4cccnc34)oc12 .
## Output 0.28

## Input Would you kindly share the measured EC50 for O=C(OCC(F)(F)F)c1cc(Cl)cc2c(Cl)c(CNC(=O)c3cnn4cccnc34)oc12 ?
## Output 0.93

## Input Any idea what EC50 was measured for CCc1cc(C(=O)OC)c2oc(CNC(=O)c3cnn4cccnc34)cc2c1 ?
## Output 10
